# target of assay: recombinant human GBA (Homo sapiens, UniProt P04062)
# Sequence (P04062 40-536): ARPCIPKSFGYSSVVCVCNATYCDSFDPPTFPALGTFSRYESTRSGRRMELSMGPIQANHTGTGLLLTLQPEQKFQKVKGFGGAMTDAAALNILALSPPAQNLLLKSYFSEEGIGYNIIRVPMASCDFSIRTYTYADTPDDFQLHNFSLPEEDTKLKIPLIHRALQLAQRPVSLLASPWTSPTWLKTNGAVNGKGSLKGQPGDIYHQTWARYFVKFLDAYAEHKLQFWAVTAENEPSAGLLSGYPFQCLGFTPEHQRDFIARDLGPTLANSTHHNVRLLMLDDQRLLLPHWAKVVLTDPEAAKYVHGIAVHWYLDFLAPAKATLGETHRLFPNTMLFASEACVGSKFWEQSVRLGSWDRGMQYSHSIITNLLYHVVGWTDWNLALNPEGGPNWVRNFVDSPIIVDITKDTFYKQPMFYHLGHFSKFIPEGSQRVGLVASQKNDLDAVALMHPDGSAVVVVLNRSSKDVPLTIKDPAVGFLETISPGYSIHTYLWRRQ
# protocol notes: Beta-glucocerebrosidase (GBA) inhibition assay
# details: 4-methylumbelliferyl-beta-D-pyranoside substrate, 4-PL curve fit
pIC50: −log10 of the molar value.
measured metric: pIC50

- O=[N+]([O-])c1cc(-c2ncccn2)ccc1NCCCCCCN[C@H]1C[C@](O)(CO)[C@@H](O)[C@H](O)[C@H]1O: < 3.00
- COCCCCCCCCCN[C@H]1C[C@](O)(CO)[C@@H](O)[C@H](O)[C@H]1O: < 3.00
- CCCCN[C@H]1C[C@](O)(CO)[C@@H](O)[C@H](O)[C@H]1O: < 3.00
- N[C@H]1C[C@](O)(CO)[C@@H](O)[C@H](O)[C@H]1O: < 3.00
- O=C(O)CCCCN[C@H]1C[C@](O)(CO)[C@@H](O)[C@H](O)[C@H]1O: < 3.00
- [N-]=[N+]=Nc1ccc(NCCCCCCN[C@H]2C[C@](O)(CO)[C@@H](O)[C@H](O)[C@H]2O)c([N+](=O)[O-])c1: 3.86

Sourced from patent US12673924B2
